# System: MCF-7 cells
# assay name: MTT anti-proliferative assay, MCF-7
# Format: cell-based
# condition: Homo sapiens, MCF7, 48 h, means ± SD of three experiments
pIC50: −log10 of the molar value.
parameter measured: pIC50

C=C1C(=O)C23C(=O)OC45CCC(C)(C)C6C(OC(=O)N7c8ccccc8Sc8ccccc87)OCC64C2CCC1C3O5 (single isomer, unassigned; ent-6) = 4.58
C=C1C(=O)C23C(=O)OC45CCC(C)(C)C6C(OC(=O)N7CCCC7)OCC64C2CCC1C3O5 (single isomer, unassigned; ent-6) = 4.68
C=C1C(=O)C23C(=O)OC45CCC(C)(C)C6C(OC(=O)N7CCOCC7)OCC64C2CCC1C3O5 (single isomer, unassigned; ent-6) = 4.60
C=C1C(=O)C23C(=O)OC45CCC(C)(C)C6C(OC(=O)CCC(=O)NCc7ccc(F)cc7)OCC64C2CCC1C3O5 (single isomer, unassigned; ent-6) = 5.01
C=C1C(=O)C23C(=O)OC45CCC(C)(C)C6C(OC(=O)N(c7ccccc7)c7ccccc7)OCC64C2CCC1C3O5 (single isomer, unassigned; ent-6) = 4.48

P: C=C1C(=O)C23C(=O)OC45CCC(C)(C)C6C(OC(=O)CCC(=O)NCc7ccc(C)cc7)OCC64C2CCC1C3O5 (single isomer, unassigned; ent-6)
Q: C=C1C(=O)C23C(=O)OC45CCC(C)(C)C6C(O)OCC64C2CCC1C3O5 (single isomer, unassigned; ent-6)
R: C=C1C(=O)C23C(=O)OC45CCC(C)(C)C6C(OC(=O)CCC(=O)NCc7ccc(Cl)cc7)OCC64C2CCC1C3O5 (single isomer, unassigned; ent-6)
Ascending by pIC50, please. Answer format: the labels, ordered as requested.
Q, P, R

I: C=C1C(=O)C23C(=O)OC45CCC(C)(C)C6C(OC(=O)CCC(=O)NCc7ccc(Br)cc7)OCC64C2CCC1C3O5 (single isomer, unassigned; ent-6)
II: C=C1C(=O)C23C(=O)OC45CCC(C)(C)C6C(OC(=O)N7CCCCCC7)OCC64C2CCC1C3O5 (single isomer, unassigned; ent-6)
For the two items I and II , which reports the higher pIC50 value? Label of pick, please.
I

* * *

# Tested on: A549 cells
# assay name: MTT anti-proliferative assay, A549
# Assay type: cell-based, human
# condition: Homo sapiens, A549; MTT, 48 h; means ± SD of three experiments
parameter measured: IC50 (µM)

C=C1C(=O)C23C(=O)OC45CCC(C)(C)C6C(OC(=O)CCn7cccc7)OCC64C2CCC1C3O5 (single isomer, unassigned; ent-6) = 8.3
C=C1C(=O)C23C(=O)OC45CCC(C)(C)C6C(OC(=O)CCC(=O)NCc7ccc(F)cc7)OCC64C2CCC1C3O5 (single isomer, unassigned; ent-6) = 7.12
C=C1C(=O)C23C(=O)OC45CCC(C)(C)C6C(OC(=O)N(c7ccccc7)c7ccccc7)OCC64C2CCC1C3O5 (single isomer, unassigned; ent-6) = 23.3

P: C=C1C(=O)C23C(=O)OC45CCC(C)(C)C6C(OC(=O)N7CCCCC7)OCC64C2CCC1C3O5 (single isomer, unassigned; ent-6)
Q: C=C1C(=O)C23C(=O)OC45CCC(C)(C)C6C(OC(=O)CCC(=O)NCc7ccc(Br)cc7)OCC64C2CCC1C3O5 (single isomer, unassigned; ent-6)
Field: lower IC50 | Options: P / Q Label of pick, please.
Q
(Q: 8.6 µM, P: 15.3 µM)

* * *

# System: MCF-7 cells
# assay name: MTT anti-proliferative assay, MCF-7
# Format: cell-based
# condition: Homo sapiens, MCF7, 48 h, means ± SD of three experiments
pIC50: −log10 of the molar value.
parameter measured: pIC50

C=C1C(=O)C23C(=O)OC45CCC(C)(C)C6C(OC(=O)N(CCCl)CCCl)OCC64C2CCC1C3O5 (single isomer, unassigned; ent-6) [Compound 5d] = 4.81
C=C1C(=O)C23C(=O)OC45CCC(C)(C)C6C(OC(=O)CCC(=O)NCc7ccc(C(C)(C)C)cc7)OCC64C2CCC1C3O5 (single isomer, unassigned; ent-6) [Compound 7d] = 5.12
C=C1C(=O)C23C(=O)OC45CCC(C)(C)C6C(OC(=O)CCn7cccc7)OCC64C2CCC1C3O5 (single isomer, unassigned; ent-6) [Compound 5l] = 4.80
CC(=O)O[C@H]1C(=O)[C@@]2(C)[C@H]([C@H](OC(=O)c3ccccc3)[C@]3(O)C[C@H](OC(=O)[C@H](O)[C@@H](NC(=O)c4ccccc4)c4ccccc4)C(C)=C1C3(C)C)[C@]1(OC(C)=O)CO[C@@H]1C[C@@H]2O [Taxol, reference compound] = 5.29
C=C1C(=O)C23C(=O)OC45CCC(C)(C)C6C(OC(=O)N7CCCCC7)OCC64C2CCC1C3O5 (single isomer, unassigned; ent-6) [Compound 5g] = 4.64

A: C=C1C(=O)C23C(=O)OC45CCC(C)(C)C6C(OC(=O)CCC(=O)NCc7ccc(OC)cc7)OCC64C2CCC1C3O5 (single isomer, unassigned; ent-6) [Compound 7c]
B: C=C1C(=O)C23C(=O)OC45CCC(C)(C)C6C(OC(=O)N(CC)CC)OCC64C2CCC1C3O5 (single isomer, unassigned; ent-6) [Compound 5b]
C: C=C1C(=O)C23C(=O)OC45CCC(C)(C)C6C(OC(=O)N(C)C)OCC64C2CCC1C3O5 (single isomer, unassigned; ent-6) [Compound 5a]
// sort entries: pIC50, high to low Answer format: the labels, ordered as requested.
A, B, C
(A: 5.08, B: 4.76, C: 4.51)

1: C=C1C(=O)C23C(=O)OC45CCC(C)(C)C6C(OC(=O)CCN7C(=O)c8ccccc8C7=O)OCC64C2CCC1C3O5 (single isomer, unassigned; ent-6) [Compound 5m]
2: C=C1C(=O)C23C(=O)OC45CCC(C)(C)C6C(OC(=O)N(C)CC)OCC64C2CCC1C3O5 (single isomer, unassigned; ent-6) [Compound 5c]
Field: lower pIC50 | Options: 1 / 2 Label of pick, please.
2
(2: 4.66, 1: 4.91)

* * *

# Tested on: A549 cells
# assay name: MTT anti-proliferative assay, A549
# Type: cell-based, human
# condition: Homo sapiens, A549; MTT, 48 h; means ± SD of three experiments
# Procedure: A series of novel enmein-type diterpenoid derivatives, 5a–m, were synthesized by introducing a side chain containing a carbamate moiety at the C-6 position of compound 4. The anticancer activities of 5a–m were tested against three human cancer cell lines and one human normal cell line by MTT assay. […] All derivatives were evaluated for their anti-proliferative activities against three cancer cell lines and one normal cell line by MTT assay. […]
parameter measured: IC50 (µM)

A selection of reference data follows.
C=C1C(=O)C23C(=O)OC45CCC(C)(C)C6C(OC(=O)N(C)C)OCC64C2CCC1C3O5 (single isomer, unassigned; ent-6) [Compound 5a] = 14.7
C=C1C(=O)C23C(=O)OC45CCC(C)(C)C6C(OC(=O)N7CCCC7)OCC64C2CCC1C3O5 (single isomer, unassigned; ent-6) [Compound 5f] = 13.4

A: C=C1C(=O)C23C(=O)OC45CCC(C)(C)C6C(OC(=O)N7CCCCCC7)OCC64C2CCC1C3O5 (single isomer, unassigned; ent-6) [Compound 5h]
B: C=C1C(=O)C23C(=O)OC45CCC(C)(C)C6C(OC(=O)CCN7C(=O)c8ccccc8C7=O)OCC64C2CCC1C3O5 (single isomer, unassigned; ent-6) [Compound 5m]
C: CC(=O)O[C@H]1C(=O)[C@@]2(C)[C@H]([C@H](OC(=O)c3ccccc3)[C@]3(O)C[C@H](OC(=O)[C@H](O)[C@@H](NC(=O)c4ccccc4)c4ccccc4)C(C)=C1C3(C)C)[C@]1(OC(C)=O)CO[C@@H]1C[C@@H]2O [Taxol, reference compound]
// sort entries: IC50, high to low Answer format: the labels, ordered as requested.
A, B, C
(A: 18.4 µM, B: 6.85 µM, C: 4.21 µM)

* * *

# Test system: MCF-7 cells
# assay name: MTT anti-proliferative assay, MCF-7
# Assay type: cell-based
# condition: Homo sapiens, MCF7, 48 h, means ± SD of three experiments
parameter measured: IC50 (µM)
Value expressed in µM; do not type the unit.

C=C1C(=O)[C@]23[C@H](O)[C@H]1CC[C@H]2[C@@]12CO[C@]3(O)[C@@H](O)[C@@H]1C(C)(C)CC[C@@H]2O [Oridonin, reference compound] = 18.5
C=C1C(=O)C23C(=O)OC45CCC(C)(C)C6C(OC(=O)CCC(=O)NCc7ccccc7)OCC64C2CCC1C3O5 (single isomer, unassigned; ent-6) = 10.8

Continue with the molecule presented below.
# molecule C=C1C(=O)C23C(=O)OC45CCC(C)(C)C6C(OC(=O)CCC(=O)N7CCC(c8noc9cc(F)ccc89)CC7)OCC64C2CCC1C3O5 (single isomer, unassigned; ent-6) ; its IC50 = 6.74
